System: SF-539
assay_comment: NCI tumour cell line growth inhibition, 48 h
Activity calls are given as the source filed them. Rule as the data show it: active = GI50 up to about 1.1 µM and inactive = higher.
Your response should consist of one outcome taken from active, inactive

Exercise: How did this test come out for COc1c2c(nc3ccccc13)-c1cc3c(c(=O)n1C2)COC(=O)C3(O)CC(=O)N1CCOCC1 (stereo not given) ?
Solution: active

Exercise: Now the molecule COC1CC(OS(=O)(=O)c2ccc([N+](=O)[O-])cc2)C(OC(=O)c2ccccc2)C(C)O1 (stereo not given)
Solution: inactive

Exercise: Request: CC(C)=Cc1cc(C(=O)Nc2ccc(Cl)c(Cl)c2)nc(N)n1
Solution: inactive

Exercise: Quick one: COC(=O)C1=C(C)NC(C)=C(C(=O)OC)C1c1cccc(NO)c1
Solution: inactive

More entries:
Exercise: For this molecule, state the assay outcome: N#Cc1sc2c(c1OC(=O)c1ccc(Cl)cc1)c(=O)n(-c1ccccc1)c(=S)n2-c1ccccc1
Solution: inactive

----------
Test system: EKVX
assay_comment: NCI tumour cell line growth inhibition, 48 h
Active and inactive are the calls of the source. No stated cut-off is given here; in the data, active = GI50 up to about 1.1 µM and inactive = higher.
measurement_label: GI50

Exercise: So what does the record say about GI50 for COCC#C[C@@]1(O)CCCCC1CC(OC)OC (stereo not given in full) ?
Solution: > 100 µM (inactive)

// next entry
Exercise: Field request: GI50 | item: C=C1CCC2[C@@H](CCC3[C@]2(C)CCC[C@]3(C)C(=O)OC)C1CCO (stereo not given in full)
Solution: 20.5 µM (inactive)

----------
Tested on: SF-295
assay_comment: NCI tumour cell line growth inhibition, 48 h
Calls of active or inactive are those of the source. Cut-off read from the data, not from the text of the source: active = GI50 up to about 1.1 µM and inactive = higher.
Could you please pick one outcome from this set? active, inactive

Sample answers from the record:
Exercise: For this compound, state the assay outcome: O=C1CCC(=O)C(C(=O)CCC(=O)Nc2cccc(Cl)c2)C1 (centres undefined)
Solution: inactive

Exercise: Same thing, different compound: Cc1nc2ccc(S(=O)(=O)Nc3nccs3)cc2c(=O)n1NS(=O)(=O)c1nccs1
Solution: inactive

Exercise: Also need COc1ccc2c(OC)c3ccoc3nc2c1O , thanks.
Solution: inactive

Exercise: BrP(NC1CCCCCC1)(c1ccccc1)(c1ccccc1)c1ccccc1 , same question.
Solution: inactive

Exercise: Repeat with CCOC(=O)c1cn2c(n1)sc1cc([N+](=O)[O-])ccc12
Solution: inactive

Exercise: Also CC1=C(C)C2(C#N)C(=O)N3C(=NC(c4ccco4)NC3c3ccco3)C2(C#N)C(c2ccco2)N1 (centres undefined) ?
Solution: inactive

Exercise: And for C[C@@H](C[C@H]1OC(C)(C)O[C@@H]1C(C)(C)O)[C@H]1CC=C2[C@]3(C)[C@H](O)C[C@H]4C(C)(C)[C@H](O)CC[C@]4(C)[C@H]3CC[C@]21C ?
Solution: inactive

Exercise: Same question for C[n+]1c(-c2ccc(/C=N/Nc3ccnc(N/N=C/c4ccc(-c5cn6ccccc6[n+]5C)cc4)n3)cc2)cn2ccccc21 please.
Solution: inactive

More entries:
Exercise: So what was the verdict on Cc1cc(-c2nc3ccccc3s2)ccc1NC(=O)[C@@H](N)CCCCN in this test?
Solution: inactive

Exercise: // repeat for CCOC(=O)c1csc(NC(=O)CCN2CCCCC2)n1 and report
Solution: inactive

----------
System: Hs-578T
assay_comment: NCI tumour cell line growth inhibition, 48 h
The source made the active and inactive calls. No stated cut-off is given here; in the data, active = GI50 up to about 1.1 µM and inactive = higher.
Let's look at some compounds and their measured GI50.

The cases that follow already have their GI50 on record.
Exercise: Find the recorded GI50 belonging to CCN(CC)CCNc1n[n+]([O-])c2cc([N+](=O)[O-])ccc2[n+]1[O-] and report it.
Solution: 3.25 µM (inactive)

Exercise: Repeat for the following compound: CCN(CC)c1ccc(/C=C2/C[N+](C)(C)C/C(=C/c3ccc(N(CC)CC)cc3)C2=O)cc1
Solution: 2.47 µM (inactive)

Exercise: What about this compound? CCOC(=O)c1cn2c(n1)sc1cc([N+](=O)[O-])ccc12
Solution: > 100 µM (inactive)

Exercise: Note, next up: C=C1CC(C)(COc2ccc3c(C)c(C)c(=O)oc3c2C)OC1=O (stereo unspecified)
Solution: 1.9 µM (inactive)

Exercise: Please do the same for [N-]=[N+]=Nc1cc(=O)n(-c2ccccc2)c(=O)n1-c1ccccc1 as well.
Solution: > 100 µM (inactive)

Further cases:
Exercise: Recorded GI50 for C=CC[N+]12CN3CN(CN(C3)C1)C2 , please?
Solution: > 100 µM (inactive)

----------
Tested on: SN12C
assay_comment: NCI tumour cell line growth inhibition, 48 h
Activity calls are given as the source filed them. No stated cut-off is given here; in the data, active = GI50 up to about 1.1 µM and inactive = higher.
Below, each entry is listed with its recorded GI50.

Worked examples follow.
Exercise: # GI50 lookup, item Nc1c([N+](=O)[O-])cc2c3c(cccc13)CC2
Solution: 62.8 µM (inactive)

Exercise: Next: C=C1CC(C)(COc2ccc3c(C)c(C)c(=O)oc3c2C)OC1=O (stereo not drawn)
Solution: 2.04 µM (inactive)

Exercise: Also CCOC(=O)C(NC(=O)N(C1=NCC(C)S1)C1CCCCC1)(OC)C(F)(F)F (stereo not drawn) ?
Solution: 15.1 µM (inactive)

Next:
Exercise: Fill in: GI50 of COc1cccc(/C=C2\C(=O)N(C(=O)Cc3ccccc3)N=C2C)c1 is ___
Solution: > 100 µM (inactive)

Exercise: // next record Nc1nc(Cl)cc(OCC2(CO)CCCCC2)n1
Solution: > 100 µM (inactive)

Exercise: Try this compound next: O=S(=O)(O)c1ccc(O)c(/N=N/c2c(O)ccc3ccccc23)c1
Solution: > 100 µM (inactive)

Exercise: Here is the next compound: COc1ccc2c(OC)c3ccoc3nc2c1O
Solution: > 100 µM (inactive)

Exercise: Moving on to the next compound: O=CCOCc1cc2c(cc1Br)OCO2
Solution: 34.5 µM (inactive)

Exercise: Another compound to look at: C[C@]12CC/C(=N\O)C=C1CC[C@@H]1[C@@H]2CC[C@]2(C)C(=N/O)/C(=C/c3ccc([N+](=O)[O-])cc3)C[C@@H]12
Solution: 4.27 µM (inactive)

Exercise: How about CN(C)CCO/N=C1/C=C2CC[C@H]3[C@@H]4CC[C@H](O)[C@@]4(C)CC[C@@H]3[C@@]2(C)CC1 ?
Solution: 11.7 µM (inactive)

Exercise: Query CC1=NN(c2cccc(Cl)c2)C2(C1)C(Cl)C(=O)N2c1nc2ccccc2s1 (stereo not drawn) next
Solution: 22.8 µM (inactive)

Exercise: Again, but for O=c1c2ccccc2nc(-c2ccc(Br)cc2)n1NC1OC(CO)C(O)C(O)C1O (stereo not drawn)
Solution: > 100 µM (inactive)

Exercise: Entry C[C@]12CC[C@H](OC3CCCCO3)CC1=CC[C@@H]1C2CC[C@]2(C)/C(=N/OCCC#N)CCC12 (stereo partly drawn) please
Solution: 64.7 µM (inactive)

----------
Tested on: OVCAR-5
assay_comment: NCI tumour cell line growth inhibition, 48 h
Active and inactive are the calls of the source. Rule as the data show it: active = GI50 up to about 1.1 µM and inactive = higher.
measurement_label: GI50

The following molecules have reported results that may help.
Exercise: API: value(readout= GI50, system= OVCAR-5, query= CCOC(=O)CC1COc2ccc3c(c21)OCO3 (stereo not given) )
Solution: > 100 µM (inactive)

Exercise: // query: COC(=O)C(CC(=O)Nc1ccc(Cl)c(Cl)c1)C(=O)C(=O)NC1C2CC3CC(C2)CC1C3 (stereo not given)
Solution: > 100 µM (inactive)

Exercise: Also check C(=C\c1csnn1)/c1cccnc1
Solution: > 100 µM (inactive)

More entries:
Exercise: Look up GI50 with OVCAR-5 for this molecule: CS(=O)(=O)OCC1CN(S(C)(=O)=O)c2cc(O)ccc21 (stereo not given)
Solution: 2.84 µM (inactive)

Exercise: Proceed to C[C@H]1CCC/C=C/[C@@H]2C[C@H](OC3OC(CO)C(O)C(O)C3O)C[C@H]2[C@H](O)/C=C/C(=O)O1 (stereo not given in full)
Solution: 37.3 µM (inactive)

Exercise: Input O=CNCNCCO
Solution: > 100 µM (inactive)

Exercise: Further, for CN(C)Cc1cc(/N=N/c2ccc(Cl)cc2)ccc1OC(=O)c1ccccc1 ?
Solution: 16.8 µM (inactive)

Exercise: Also O=C1[C@@H]2C[C@@H](O)CN2C(=O)c2ccccc2N1CCCO , if possible.
Solution: > 100 µM (inactive)

Exercise: Query COc1ccc(OC)c2c(Nc3ccc(S(=O)(=O)O)c4cc(S(=O)(=O)O)cc(S(=O)(=O)O)c34)cc(C)nc12 next
Solution: > 100 µM (inactive)

Exercise: Also O=C(NC1=C(Cl)C(=O)c2ccccc2C1=O)c1ccccc1 ?
Solution: 47.1 µM (inactive)

----------
System: COLO 205
assay_comment: NCI tumour cell line growth inhibition, 48 h
Active and inactive are the calls of the source. Cut-off read from the data, not from the text of the source: active = GI50 up to about 1.1 µM and inactive = higher.
measurement_label: GI50

Exercise: Given the entry COc1ccc(C2C3C(=O)C=CC(=O)C3[C@@H]2C)cc1OC (stereo partly drawn) , report its measured GI50.
Solution: 78.5 µM (inactive)

Exercise: Item: COc1ccc(C(C2C(=O)N(C)C(=O)N(C)C2=O)C(F)(F)C(=O)N(C)C)cc1 (stereo not drawn)
Solution: > 100 µM (inactive)

Exercise: Try the molecule COc1ccc(OC)c2c(Nc3ccc(S(=O)(=O)O)c4cc(S(=O)(=O)O)cc(S(=O)(=O)O)c34)cc(C)nc12
Solution: > 100 µM (inactive)

Exercise: Another molecule to check: O=C1CCC2COc3ccc(O)c1c32 (stereo not drawn)
Solution: > 100 µM (inactive)

Exercise: # iterate: COc1cc(C)cc(C(=O)/C=C/c2ccccc2)c1O
Solution: 20 µM (inactive)

More entries:
Exercise: Please look up its GI50: N#Cc1nc(C2CCC(=O)O2)oc1N (stereo not drawn)
Solution: > 100 µM (inactive)

Exercise: And O=C1NC(=S)NC(=O)C1C(c1ccccc1[N+](=O)[O-])C1C(=O)NC(=S)NC1=O.c1ccncc1 ?
Solution: > 100 µM (inactive)
